# Tested on: DMS 273 small cell lung
# experimentalDetails: NCI tumour cell line growth inhibition, 48 h
valueKind: TGI

>  <molecule>
CC1(c2cccc(N)c2)C2C(=O)NC(=O)C1C(=O)NC2=O (stereo unspecified)

>  <TGI>
73.3 µM

$$$$

Return reported TGI; argument: COc1ccc(N2C(=O)c3c(c4[nH]c5ccc(OC)cc5c4c4ccc(C(C)(C)C)cc34)C2=O)cc1
> 100 µM

Return reported TGI; argument: CC(=O)[CH-]C(=O)c1ccccc1.CC(=O)[CH-]C(=O)c1ccccc1.CC[C@H](/C=C/C(C)[C@H]1CCC2[C@@H]3CC=C4C[C@@H]([O-])CC[C@]4(C)C3CC[C@@]21C)C(C)C.CC[O-].[Ti+4] (stereo partly specified)
> 100 µM

Return reported TGI; argument: Cc1cc(C)n2c(-c3ccccc3)c(C)cc2n1
> 100 µM

----------
# TGI per record follows
# Test system: SNB-75 CNS
# experimentalDetails: NCI tumour cell line growth inhibition, 48 h

Field: example entries. Status: answers known.
>  <compound>
CC1(C)CCCC(C)(C2CCC3(C)C2C(O)CC2C4(C)CCC(O)C(C)(C)C4C(O)CC23C)O1 (stereo unspecified)

>  <valueKind>
TGI

>  <result>
24.6 µM

$$$$
>  <compound>
C=CCc1cc(C=C(C#N)C#N)cc(OC)c1O

>  <valueKind>
TGI

>  <result>
> 100 µM

$$$$
>  <compound>
CCOC(=O)C1=c2[nH]c3cccc4cccc(c43)n2C(=O)CC1c1ccccc1 (stereo unspecified)

>  <valueKind>
TGI

>  <result>
> 100 µM

$$$$
>  <compound>
COc1cccc(NC(=O)C(C)(C)C)c1SSc1c(NC(=O)C(C)(C)C)cccc1OC

>  <valueKind>
TGI

>  <result>
> 74.4 µM

$$$$

Return reported TGI; argument: O=C(Nc1ccc(Sc2ccc(N=Nc3c(O)c(S(=O)(=O)O)cc4cc(S(=O)(=O)O)ccc34)cc2)cc1)c1ccc(N=Nc2c(O)ccc3c(S(=O)(=O)O)cc(S(=O)(=O)O)cc23)cc1
> 100 µM

Return reported TGI; argument: Clc1cc2c(nn1)Nc1ccccc1S2
> 100 µM

----------
# log10 TGI per record follows
# Tested on: BT-549 breast
# experimentalDetails: NCI tumour cell line growth inhibition, 48 h
Transform log10 | Measure TGI | Unit µM

Field: example entries. Status: answers known.
>  <molecule>
CC(C)(CCN=C(N)Nc1ccccn1)c1ccc(C(F)(F)F)cc1

>  <valueKind>
log10 TGI

>  <readoutNumber>
1.49

$$$$
>  <molecule>
c1ccc(-c2nnc(SCc3c[nH]c4ccccc34)n2-c2ccccc2)cc1

>  <valueKind>
log10 TGI

>  <readoutNumber>
1.99

$$$$
>  <molecule>
Cn1c2ccccc2c(=O)c2c(O)cc3c(c21)CC(C1(C)CO1)O3 (centres undefined)

>  <valueKind>
log10 TGI

>  <readoutNumber>
0.65

$$$$

Return reported log10 TGI; argument: CC1SC2(CCC(c3ccccc3)CC2)N(NC(=O)c2[nH]c3ccc(F)cc3c2-c2ccccc2)C1=O (centres undefined)
1.54

Return reported log10 TGI; argument: CN1CC[C@]2(c3cccc(O)c3)CC(=O)/C(=C/c3ccccc3)[C@H]1C2
1.16

Return reported log10 TGI; argument: CO[C@]12C=C/C(=C(/C(=O)OCc3cccnc3)C(=O)CCCCCCCC[C@@]3(OC)C=C/C(=C(/C(=O)OCc4cccnc4)C(=O)CCCCCCCC1)O3)O2
0.63

Return reported log10 TGI; argument: CCOC(=O)c1ccc2c(c1)nc(/C=C/c1ccc(Cl)cc1)n2-c1cc(C(C)(C)C)[nH]n1
1.41

Return reported log10 TGI; argument: Cc1cc(C)nc(SCC(=O)OC2CC(C)CCC2C(C)C)n1 (centres undefined)
1.90

----------
# TGI per record follows
# Test system: UO-31 renal
# experimentalDetails: NCI tumour cell line growth inhibition, 48 h
Numbers only here, please. The scale is µM.

>  <compound>
Cc1cc2c(C(C)C)c(O)c(O)c(C=NCCO)c2c(O)c1-c1c(C)cc2c(C(C)C)c(O)c(O)c(C=NCCO)c2c1O

>  <TGI (µM)>
11

$$$$
>  <compound>
COC(=O)C1=CC2CC1C(S(=O)(=O)c1ccccc1)C2S(=O)(=O)c1ccccc1 (centres undefined)

>  <TGI (µM)>
27.7

$$$$
>  <compound>
CC(=O)Oc1c2c(c(CC=C(C)C)c3c1C(=O)C1=C[C@@H]4CC5C(C)(C)OC(C/C=C(/C)C(=O)O)(C4=O)[C@@]15O3)OC(C)(CCC=C(C)C)C=C2 (some centres undefined)

>  <TGI (µM)>
0.526

$$$$
>  <compound>
N#CC(Nc1cccc(C(F)(F)F)c1)c1ccccc1C(F)(F)F (centres undefined)

>  <TGI (µM)>
31.9

$$$$
>  <compound>
O=C(NNC(=S)Nc1ccc(Br)cc1)c1cc(-c2ccccc2)nc2ccccc12

>  <TGI (µM)>
36.4

$$$$

Return reported TGI; argument: O=c1c2cccc(F)c2sc2c(N3CCNCC3)nc3ccccc3c12
2.04

Return reported TGI; argument: Clc1ccc(CNc2nc(Cl)c3[nH]cnc3n2)cc1Cl
60

----------
# Tested on: RPMI-8226 leukemia
# experimentalDetails: NCI tumour cell line growth inhibition, 48 h
Please note: y applies when TGI is 30 µM or greater, and n applies otherwise.

For this compound, is measured TGI 30 µM or higher? CCCCCCC/C=C/[C@H]1O[C@]2(O)C(=O)C=C3C[C@@H](O[C@@H]4O[C@H](CO)[C@@H](O)C(O)[C@@H]4O)C[C@@H]3[C@H]2C=C1C (stereo partly drawn)
n

For this compound, is measured TGI 30 µM or higher? CCOC(=O)C1=C(C)N(Cc2ccccc2)C(=O)C1CC#N (stereo not drawn)
y

For this compound, is measured TGI 30 µM or higher? Cc1cc(C)c2c(c1)C1=NCCN1C2(O)c1ccc(Cl)cc1 (stereo not drawn)
y

For this compound, is measured TGI 30 µM or higher? CCCCc1ccc(-n2sc3ncc([N+](=O)[O-])cc3c2=O)cc1
y

For this compound, is measured TGI 30 µM or higher? Cc1ccc2c(c1)C1(OC(=O)c3ccccc31)c1ccc(F)cc1O2 (stereo not drawn)
y

For this compound, is measured TGI 30 µM or higher? COc1ccc(P2(=S)SP(=S)(c3ccc(Cl)cc3)S2)cc1 (stereo not drawn)
y

For this compound, is measured TGI 30 µM or higher? O=C1CCCCC=C1C[N+](=O)[O-]
y

For this compound, is measured TGI 30 µM or higher? CCOC(=O)C1=c2[nH]c3cccc4cccc(c43)n2C(=O)CC1c1ccccc1 (stereo not drawn)
y

For this compound, is measured TGI 30 µM or higher? COc1ccc2c(Cc3c4ccccc4cc4ccccc34)cncc2c1O
n

For this compound, is measured TGI 30 µM or higher? CN(C)CCC=C1c2ccccc2C(C)(C)c2ccccc21
n

For this compound, is measured TGI 30 µM or higher? CCCC[n+]1c(/C=C\c2c(OC)cc(OC)cc2OC)ccc2ccccc21
n

For this compound, is measured TGI 30 µM or higher? NCCCn1c2c(c3ccc([N+](=O)[O-])cc3c1=O)C(=O)c1cc(-c3ccccc3)ccc1-2
n

----------
# System: LOX IMVI melanoma
# experimentalDetails: NCI tumour cell line growth inhibition, 48 h
valueKind: TGI

Field: example entries. Status: answers known.
>  <molecule>
CC1SC2(CCC(c3ccccc3)CC2)N(NC(=O)c2[nH]c3ccc(F)cc3c2-c2ccccc2)C1=O (centres undefined)

>  <targetSystem>
LOX IMVI melanoma

>  <TGI>
14 µM

$$$$
>  <molecule>
C=C1CC[C@@H]2[C@](C)(COC(C)=O)[C@H](OC(C)=O)CC[C@@]2(C)[C@@H]1CC(Nc1ccc(S(=O)(=O)Nc2cc(C)on2)cc1)C1=CCOC1=O (some centres undefined)

>  <targetSystem>
LOX IMVI melanoma

>  <TGI>
2.54 µM

$$$$
>  <molecule>
COc1ccc(-c2nn(-c3cccc(NC(=O)Nc4ccccc4)c3)cc2-c2ccncc2)cc1Cl

>  <targetSystem>
LOX IMVI melanoma

>  <TGI>
17 µM

$$$$
>  <molecule>
CN1C(=O)C(C(N)=O)C2CC1(C)Oc1ccccc12 (centres undefined)

>  <targetSystem>
LOX IMVI melanoma

>  <TGI>
> 100 µM

$$$$
>  <molecule>
C[n+]1c2ccccc2n2c3ccccc3c(NCCc3ccccn3)c(C#N)c21

>  <targetSystem>
LOX IMVI melanoma

>  <TGI>
3.41 µM

$$$$

Return reported TGI; argument: COc1ccc(P2(=S)SP(=S)(c3ccc(Cl)cc3)S2)cc1 (centres undefined)
> 100 µM

Return reported TGI; argument: Cc1c(-c2ccccc2)c(C#N)c2nnn(C3CCCCC3)c(=O)n12
> 100 µM

Return reported TGI; argument: CCOc1ccc(/C(C=O)=C(\Cl)c2ccc(OC)c(OC)c2)cc1
> 100 µM

Return reported TGI; argument: O=C(Nc1nc(C23CC4CC(CC(C4)C2)C3)cs1)c1cc2cc(Cl)ccc2oc1=O
> 100 µM
